Listed next: entries and their corresponding protein stability index.
B1: CD207 (parent)
chain: MTVEKEAPDAHFTVDKQNISLWPR

variants of: B1; assay: protein stability index of a GFP-peptide fusion (GPS, HEK-293T) (PSI 1-6); higher = more stable; details: c terminus: a fixed tail appended;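 further: lentivirally expressed fusions sorted by FACS into six bins by GFP to DsRed ratio, PSI derived from sequencing read proportions per bin multiplied by bin number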
Kindly provide the number alone.

Exercise: Find the recorded protein stability index belonging to `W22K` and report it.
Solution: 4.99

Exercise: Quick one: protein stability index of `P23T` ?
Solution: 2.93

Exercise: protein stability index lookup needed for `P23M` , thanks.
Solution: 2.84
